Data provenance: ChEMBL document CHEMBL1201862

Form field: GI50 (one value per entry).
# Tested on: SK-MEL-28
# Assay info: NCI tumour cell line growth inhibition, 48 h
Active and inactive are the calls of the source. No stated cut-off is given here; in the data, active = GI50 up to about 1.1 µM and inactive = higher.
Readout name: GI50

1) CNC(=O)C(C)C1C(=O)/C(=C(O)/C=C\C(C)=C\C(C)C2OC3(C)OC(C=CC34CO4)C2C)C(=O)N1C1CCC(O)C(C)O1 (centres undefined) = > 100 µM (inactive)
2) C=C[C@@H]1C(CO)=CCC2[C@H]1CCC1C(C)(C)C(=O)CC[C@]21C (some centres undefined) = > 100 µM (inactive)
3) CSC[C@H](NC(=O)COc1cccc2cnccc12)C(=O)NC(Cc1ccccc1)C(O)C(=O)N1CSC[C@H]1C(=O)NC(C)(C)C (some centres undefined) = 78.2 µM (inactive)
4) c1ccc2c(c1)CCc1c(-c3ccncc3)n[nH]c1-2 = 23.8 µM (inactive)

###

# System: M14
# Assay info: NCI tumour cell line growth inhibition, 48 h
Active and inactive are the calls of the source. Rule as the data show it: active = GI50 up to about 1.1 µM and inactive = higher.
Form field: GI50 (one value per entry).
Readout name: GI50

1. COc1cc(C2c3cc4c(cc3[C@@H](N(C)C)[C@H]3COC(=O)C23)OCO4)cc(OC)c1O (some centres not stated) = 31 µM (inactive)
2. CC(=O)Nc1ccc(S(=O)(=O)/N=c2/sc(S(N)(=O)=O)nn2C)cc1 = > 100 µM (inactive)
3. COc1c(C)c(C/C=C(\C)CC/C=C(\C)CC/C=C(\C)CC/C=C(\C)CCC=C(C)C)c(OC)c(OC)c1OC = 50.9 µM (inactive)
4. O=C(CCCCCC(=O)N1CC(CCl)c2ccc([N+](=O)[O-])cc21)N1CC(CCl)c2ccc([N+](=O)[O-])cc21 (configuration not stated) = > 100 µM (inactive)
5. Cc1nc2nc3c(ncn3COCCO)c(O)n2c1C(c1ccccc1)(c1ccccc1)c1ccccc1 = 16.3 µM (inactive)
6. CC(=O)O[C@H]1CC[C@@]2(C)C(=CC[C@H]3[C@@H]4C[C@H](N5CCOCC5)[C@H](OC(C)=O)[C@@]4(C)CC[C@@H]32)C1 = > 100 µM (inactive)
7. NCCCCc1cc(O)c2c(c1O)C(=O)c1ccccc1C2=O = 16.5 µM (inactive)

###

Form field: GI50 (one value per entry).
# Test system: COLO 205
# Assay info: NCI tumour cell line growth inhibition, 48 h
The source made the active and inactive calls. Cut-off read from the data, not from the text of the source: active = GI50 up to about 1.1 µM and inactive = higher.
Readout name: GI50

1. COc1cc(OC(=O)c2c(O)cc(O)c(O)c2C)cc(C)c1C(=O)Oc1cc(C)c(C(=O)O)c(O)c1 = > 100 µM (inactive)
2. Cc1ccc(S(=O)(=O)NC(=O)NC(CO)C(=O)O)cc1 (stereo unspecified) = > 100 µM (inactive)
3. CC(=O)Nc1ccc(S(=O)(=O)/N=c2/sc(S(N)(=O)=O)nn2C)cc1 = > 100 µM (inactive)
4. CN(C)Cc1cc(C(=O)/C=C/c2c(F)cccc2Cl)cc(CN(C)C)c1O = 10.8 µM (inactive)
5. CCOC(=O)c1cc2c(OCc3ccccc3)c(OC)cc3c2c(n1)N(c1ccc(OC)cc1)C(C)C3 (stereo unspecified) = > 50 µM (inactive)
6. O=C(Cc1ccccc1)NN1C(=O)/C(=C\c2ccc([N+](=O)[O-])cc2)S/C1=N\c1ccccc1 = > 100 µM (inactive)
7. O=c1c(=O)c2cscc2c1=O = 4.73 µM (inactive)
8. Nc1ccc(C(=O)N/C(=C\C=C\c2ccco2)c2nc3c4c(ccc3[nH]2)C(=O)c2ccccc2C4=O)cc1 = 61.1 µM (inactive)
9. CC(=O)C1Cn2c(nc3ccccc32)C[Se]1 (stereo unspecified) = 16.5 µM (inactive)
10. Cc1ncc([N+](=O)[O-])n1CCNC(=O)CCC(=O)NCCCn1ccnc1[N+](=O)[O-] = > 100 µM (inactive)
11. O=C1CC(c2ccc([N+](=O)[O-])cc2)C2(C(=O)NC(=S)NC2=O)C(c2ccc([N+](=O)[O-])cc2)C1 (stereo unspecified) = 33.5 µM (inactive)
12. CC(C)CC(N)C(=O)OCN1C(=O)C2C3C=CC(C2C1=O)C1C2C(=O)N(COC(=O)C(N)CC(C)C)C(=O)C2C31 (stereo unspecified) = > 92.3 µM (inactive)
13. COc1ccc(CCc2cc(OC)c(O)c(OC)c2)cc1 = > 100 µM (inactive)
14. CC1(C)CC(=O)c2c(nc(SSc3nc4c(c(-c5ccccc5)c3C#N)C(=O)CC(C)(C)C4)c(C#N)c2-c2ccccc2)C1 = > 10 µM (inactive)
15. COC(=O)n1c(C)c(C=O)c2ccc(OC)cc21 = 46.9 µM (inactive)
16. NCc1ccc(O)c(O)c1 = > 100 µM (inactive)
17. NC(=O)CC1(O)C=CC(=O)C=C1 = > 100 µM (inactive)
18. CCOc1ccc(Nc2nc(N)nc(N)c2N)cc1 = 27.9 µM (inactive)
19. CCC[C@H]1O[C@@H]2CC(=O)O[C@@H]2C2=C1C(=O)C=CC2=O = 3.38 µM (inactive)
20. N#Cc1ccccc1NC(=O)C(=O)C(C(=O)c1ccccc1F)C1OC(=O)c2ccccc21 (stereo unspecified) = 37.7 µM (inactive)
21. CCOC(=O)C1=COC(C)(CCc2ccccc2)CC1=O (stereo unspecified) = > 100 µM (inactive)
